The values you see were collected from the supplement of paper PMC10307832.

- Test system: NCI-H661
- Test name: relative viability (nuclei count vs DMSO), 5 days (fraction); higher = more cells survive
- Measurement conditions: first compound 0.2 µM
Recorded metric: relative viability
One number for each entry.

Past entries and their recorded results:
CCNC(=O)c1noc(-c2cc(C(C)C)c(O)cc2O)c1-c1ccc(CN2CCOCC2)cc1 [Luminespib] + O=C(c1cc(Cc2n[nH]c(=O)c3ccccc23)ccc1F)N1CCN(C(=O)C2CC2)CC1 [Olaparib] (partner 8 µM)	0.3
CCNC(=O)c1noc(-c2cc(C(C)C)c(O)cc2O)c1-c1ccc(CN2CCOCC2)cc1 [Luminespib] + Nc1nc2[nH]cc(CCc3ccc(C(=O)N[C@@H](CCC(=O)O)C(=O)O)cc3)c2c(=O)[nH]1 [Pemetrexed] (partner 0.2 µM)	0.318
Cc1csc(=NC2CCCCC2)n1/N=C/c1ccc(O)c(O)c1O [MIM1] + CC(=O)c1c(C)c2cnc(Nc3ccc(N4CCNCC4)cn3)nc2n(C2CCCC2)c1=O [Palbociclib] (partner 0.5 µM)	0.404

Incoming: // relative viability lookup, key: Cc1csc(=NC2CCCCC2)n1/N=C/c1ccc(O)c(O)c1O [MIM1] + C[C@@H](Oc1cc(-c2cnn(C3CCNCC3)c2)cnc1N)c1c(Cl)ccc(F)c1Cl [Crizotinib] (partner 1 µM)
Outgoing: 0.973

---

- Tested on: NCI-H2009
- Test name: relative viability (nuclei count vs DMSO), 5 days (fraction); higher = more cells survive
- Measurement conditions: first compound 2 µM
Exercise: state measured relative viability for each of the molecules provided.

CN1CCN(CCOc2cc(OC3CCOCC3)c3c(Nc4c(Cl)ccc5c4OCO5)ncnc3c2)CC1 [Saracatinib] + CC1(C)CCC(c2ccc(Cl)cc2)=C(CN2CCN(c3ccc(C(=O)NS(=O)(=O)c4ccc(N[C@H](CCN5CCOCC5)CSc5ccccc5)c(S(=O)(=O)C(F)(F)F)c4)cc3)CC2)C1 [Navitoclax] (partner 0.5 µM)	1.16

Now take the following molecule into account.
Incoming: // relative viability lookup, key: Cc1csc(=NC2CCCCC2)n1/N=C/c1ccc(O)c(O)c1O [MIM1] + O=C(CCCCCCC(=O)Nc1ccccc1)NO [Vorinostat] (partner 1 µM)
Outgoing: 0.685

---

- Test system: HCC-827
- Test name: relative viability (nuclei count vs DMSO), 5 days (fraction); higher = more cells survive
- Measurement conditions: first compound 0.03162 µM
Recorded metric: relative viability
Numbers only.

Past entries and their recorded results:
Cc1cn(-c2cc(NC(=O)c3ccc(C)c(Nc4nccc(-c5cccnc5)n4)c3)cc(C(F)(F)F)c2)cn1 [Nilotinib] + N=C(N)NC(=N)NCCc1ccccc1 [Phenformin] (partner 250 µM)	0.438
Cc1cn(-c2cc(NC(=O)c3ccc(C)c(Nc4nccc(-c5cccnc5)n4)c3)cc(C(F)(F)F)c2)cn1 [Nilotinib] + CS(=O)(=O)N1CCN(Cc2cc3nc(-c4cccc5[nH]ncc45)nc(N4CCOCC4)c3s2)CC1 [Pictilisib] (partner 1 µM)	0.829
Cc1cn(-c2cc(NC(=O)c3ccc(C)c(Nc4nccc(-c5cccnc5)n4)c3)cc(C(F)(F)F)c2)cn1 [Nilotinib] + CC(=O)Nc1cccc(-n2c(=O)n(C3CC3)c(=O)c3c(Nc4ccc(I)cc4F)n(C)c(=O)c(C)c32)c1 [Trametinib] (partner 0.02 µM)	0.542

Now take the following compound into account.
Incoming: // relative viability lookup, key: Cc1cn(-c2cc(NC(=O)c3ccc(C)c(Nc4nccc(-c5cccnc5)n4)c3)cc(C(F)(F)F)c2)cn1 [Nilotinib] + COc1cc2c(Oc3ccc(NC(=O)C4(C(=O)Nc5ccc(F)cc5)CC4)cc3F)ccnc2cc1OCCCN1CCOCC1 [Foretinib] (partner 0.25 µM)
Outgoing: 0.939
